pKi: −log10 of the molar value.
The entries that follow carry pKi values tested on Vasopressin V1b receptor (Homo sapiens, UniProt P47901), drawn from several published reports.

Answered examples (5):
compound	pKi
CCOc1ncccc1C1(N2CC3(CN(C4CCN(C)CC4)C3)C2)C(=O)N(S(=O)(=O)c2ccc(OC)cn2)c2ccc(C#N)cc21 (racemic)	8.00 to 9.00
COc1ccc(S(=O)(=O)N2C(=O)C(c3ccc(CN4CCN(CCO)CC4)cc3OC)(N3CCC[C@H]3c3ncco3)c3cc(Cl)ccc32)cc1 (stereo partly drawn)	> 8.00
COc1ccc(S(=O)(=O)n2c(=O)n(C(C(=O)N3CC[C@H](N(C)C4CCN(C)CC4)C3)c3ccccc3)c3cc(C#N)ccc32)cc1 (stereo partly drawn)	> 7.00
COc1ccc(S(=O)(=O)n2c(=O)n(C(C(=O)NCCCO)c3ccccc3)c3cc(Cl)ccc32)cc1 (stereo not drawn)	5.00 to 6.30
CCOc1ccc(OC)cc1C1(N2CCN(c3ccncc3)CC2)C(=O)N(S(=O)(=O)c2ccc(C#N)cc2)c2ccc(C#N)cc21 (stereo not drawn)	6.30 to 7.30

Turning now to a further compound:
Considering COc1ccc(S(=O)(=O)N2C(=O)C(c3cc(CN4CCN(C)CC4)cc4c3OCO4)(N3CCC[C@H]3c3ncco3)c3cc(Cl)ccc32)cc1 (stereo partly drawn) , its pKi with Vasopressin V1b receptor (Homo sapiens, UniProt P47901) was recorded as > 8.00

* * *

// molecules with reported Ki on Vasopressin V1b receptor (Homo sapiens, UniProt P47901), multi-publication

Item: N#Cc1ccc(S(=O)(=O)n2c(=O)n(C(C(=O)N3CCN(c4ccncc4)CC3)c3ccccc3)c3cc(Cl)ccc32)cc1 (stereo not drawn) | System: Vasopressin V1b receptor (Homo sapiens, UniProt P47901) | Ki: < 100 nM

Vasopressin V1b receptor (Homo sapiens, UniProt P47901) assay, molecule CCCN1CCN([C@H]2CCN(C(=O)C(c3ccccc3)n3c(=O)n(S(=O)(=O)c4ccccc4OC)c4ccc(C#N)cc43)C2)CC1 (stereo partly drawn) , recorded Ki = 500 to 10000 nM

Lab entry: Vasopressin V1b receptor (Homo sapiens, UniProt P47901) assay, molecule CCOc1ncccc1[C@]1(NC(=O)N2CC(N3CCC(N4CCCCC4)CC3)C2)C(=O)N(S(=O)(=O)c2ccc(OC)cc2OC)c2ccc(C#N)cc21 , Ki = < 1 nM

Form field, Ki with Vasopressin V1b receptor (Homo sapiens, UniProt P47901), item CC(C)NC(=O)Cn1c(-c2cccc(Cl)c2)nc2ccc([C@H]3C[C@@H](CN4CCC[C@@H](O)C4)C3)cc2c1=O : 1 to 10 nM

Record COc1ccccc1C1(N2CCN(c3ccncc3)CC2)C(=O)N(S(=O)(=O)c2ccccc2)c2ccc(Cl)cc21 (stereo not drawn) has Vasopressin V1b receptor (Homo sapiens, UniProt P47901) Ki equal to 50 to 500 nM

Observed Ki on Vasopressin V1b receptor (Homo sapiens, UniProt P47901), entry CCOc1ncccc1[C@]1(NC(=O)N2CC(N3CCC(N4CCOCC4)CC3)C2)C(=O)N(S(=O)(=O)c2ccc(OC)cn2)c2ccc(C#N)cc21 , equals 1 to 10 nM

Lab note: molecule COc1ccc(S(=O)(=O)N2C(=O)C(c3ccccc3OC)(N3CCN(c4ccncc4)CC3)c3ccc(C)cc32)c(OC)c1 (stereo not drawn) tested on Vasopressin V1b receptor (Homo sapiens, UniProt P47901); recorded Ki was 50 to 500 nM

Tested system Vasopressin V1b receptor (Homo sapiens, UniProt P47901); Ki recorded for CCOc1ncccc1[C@]1(NC(=O)N2CCC(N3C[C@@H]4C[C@H]3CN4C3COC3)CC2)C(=O)N(S(=O)(=O)c2ccc(OC)cc2OC)c2ccc(C#N)cc21 was 10 to 100 nM

Fill in: Vasopressin V1b receptor (Homo sapiens, UniProt P47901) Ki for COc1ccc(S(=O)(=O)n2c(=O)n(C(C(=O)N3CCC(NC4CCN(C)CC4)CC3)c3ccccc3)c3cc(C#N)ccc32)cc1 (stereo not drawn) = < 100 nM

Record COc1ccc(S(=O)(=O)n2c(=O)n(C(C(=O)NCCN3CCN(C(=O)OC(C)(C)C)CC3)c3ccccc3)c3cc(Cl)ccc32)cc1 (stereo not drawn) ; system Vasopressin V1b receptor (Homo sapiens, UniProt P47901); Ki = 500 to 10000 nM

# value of Ki, Vasopressin V1b receptor (Homo sapiens, UniProt P47901), item CCOc1cc(OC)ccc1C1(N2CCN(c3ccncc3)CC2)C(=O)N(S(=O)(=O)c2cccc3cccnc23)c2ccc(C#N)cc21 (racemic) = 10 to 50 nM

Considering CCOc1nc(Cl)ccc1C1(N2CCCN(c3ccncc3)CC2)C(=O)N(S(=O)(=O)c2ccc(OC)c3cccnc23)c2ccc(C#N)cc21 (racemic) , its Ki with Vasopressin V1b receptor (Homo sapiens, UniProt P47901) was recorded as 10 to 50 nM

Hey, Vasopressin V1b receptor (Homo sapiens, UniProt P47901) data for CCOc1ccccc1C1(N2CCN(c3ccnc(C)c3)CC2)C(=O)N(S(=O)(=O)c2ccc(OC)cn2)c2ccc(C#N)cc21 (racemic) : Ki came out at < 10 nM

Ki of COc1ccc(S(=O)(=O)n2c(=O)n(C(C(=O)N3CC[C@H](N)C3)c3ccccc3)c3cc(Cl)ccc32)cc1 (stereo partly drawn) , assay on Vasopressin V1b receptor (Homo sapiens, UniProt P47901), is 100 to 500 nM

The molecule COc1ccc(S(=O)(=O)N2C(=O)C(NC(=O)N3CCN(C4CCN(C5COC5)CC4)CC3)(c3cccnc3OC)c3cc(C#N)ccc32)c(OC)c1 (stereo not drawn) , tested on Vasopressin V1b receptor (Homo sapiens, UniProt P47901), showed Ki of 1 to 10 nM

Ki value, target or system Vasopressin V1b receptor (Homo sapiens, UniProt P47901), for COc1ccc(S(=O)(=O)n2c(=O)n(C(C(=O)N3CC[C@H](Nc4ccnc(C)c4)C3)c3ccccc3)c3cc(C#N)ccc32)cc1 (stereo partly drawn) : 100 to 500 nM

Summary line: COc1ccc(S(=O)(=O)N2C(=O)C(c3cc(CN4CCNCC4)ccc3OC)(N3CCC[C@H]3c3ncon3)c3cc(Cl)ccc32)cc1 (stereo partly drawn) , Vasopressin V1b receptor (Homo sapiens, UniProt P47901), reported Ki = 10 to 100 nM

Per the reported Vasopressin V1b receptor (Homo sapiens, UniProt P47901) data, COc1ccc(S(=O)(=O)n2c(=O)n(C(C(=O)N3CC[C@H](N4CCN(Cc5ccccc5)CC4)C3)c3ccccc3)c3cc(Cl)ccc32)cc1 (stereo partly drawn) has Ki of < 100 nM

Item: CCOc1ccccc1C1(N2CCN(c3ccncc3)CC2)C(=O)N(S(=O)(=O)c2cccc3cccnc23)c2ccc(C#N)cc21 (racemic) | System: Vasopressin V1b receptor (Homo sapiens, UniProt P47901) | Ki: 10 to 50 nM

Readout Ki for CCOc1ccccc1C1(N2CCN(c3ccncc3)CC2)C(=O)N(S(=O)(=O)c2cccc3c(CC)ccnc23)c2ccc(C#N)cc21 (racemic) , test system Vasopressin V1b receptor (Homo sapiens, UniProt P47901), was < 10 nM

* * *

pKi: −log10 of the molar value.
// read-out pKi, gathered for UniProt P47901 from published studies

compound	pKi
COc1ccccc1C(C(=O)N1CCN(c2ccncc2)CC1)n1c(=O)n(S(=O)(=O)c2cccc3cccnc23)c2ccc(Cl)cc21 (stereo not drawn)	5.00 to 6.30
CCOc1ccc(OC)cc1C1(N2CCN(c3ccnc(CC)c3)CC2)C(=O)N(S(=O)(=O)c2ccc(OC)c3cccnc23)c2ccc(C#N)cc21 (racemic)	7.30 to 8.00
CCOc1ccc(OC)cc1C1(N2CC3(CN(C4CCN(C5COC5)CC4)C3)C2)C(=O)N(S(=O)(=O)c2ccc(OC)cn2)c2ccc(C#N)cc21 (racemic)	8.00 to 9.00
CCOc1ncccc1[C@]1(NC(=O)N2CC(N3CCC(N4CCOCC4)CC3)C2)C(=O)N(S(=O)(=O)c2ccc(OC)cc2OC)c2cc(F)c(F)cc21	> 9.00

Readout pKi for CCOc1ccc(S(=O)(=O)N2C(=O)C(c3cc(CN4CCN(C)CC4)ccc3OC)(N3CCC[C@H]3c3ncco3)c3cc(Cl)ccc32)cc1 (stereo partly drawn) , test system UniProt P47901, was 7.00 to 8.00

Item: CC(C)NC(=O)Cn1c(-c2cccc(Cl)c2)nc2ccc([C@H]3C[C@@H](CN4CC5(CCOCC5)C4)C3)cc2c1=O | System: UniProt P47901 | pKi: 8.00 to 9.00

* * *

Reported Ki against Vasopressin V1b receptor (Homo sapiens, UniProt P47901), gathered from multiple publications, appears below.

molecule	measured on	assay result
COc1ccc(S(=O)(=O)N2C(=O)C(c3ccc(CN4CCNCC4)cc3OC)(N3CCC[C@H]3c3ncco3)c3cc(Cl)c(F)cc32)cc1 (stereo partly drawn)	Vasopressin V1b receptor (Homo sapiens, UniProt P47901)	< 10 nM

Notebook: COc1ccc(S(=O)(=O)n2c(=O)n(C(C(=O)N3CCC[C@H]3c3ncon3)c3ccccc3)c3cc(Cl)ccc32)cc1 (stereo partly drawn) , Ki read as 100 to 500 nM

For reference, reported Ki for COc1ccc(S(=O)(=O)N2C(=O)C(N[C@@H](C)c3ncco3)(c3cc(CN(C)C)ccc3OC)c3cc(Cl)ccc32)cc1 (stereo partly drawn) stands at 10 to 100 nM

Kindly note the recorded Ki for CCOc1ccc(OC)cc1C1(N2CC3(CN(C4CCN(C(C)C)CC4)C3)C2)C(=O)N(S(=O)(=O)c2ccc(OC)cn2)c2ccc(C#N)cc21 (racemic) , which is < 1 nM

The recorded Ki for entry CCOc1cc(OC)ccc1C1(N2CCC(N3CCNCC3)CC2)C(=O)N(S(=O)(=O)c2ccc(OC)cn2)c2ccc(C#N)cc21 (single isomer, unassigned; (+)) equals < 10 nM

Kindly note the recorded Ki for O=C(C(c1ccccc1)n1c(=O)n(S(=O)(=O)c2ccc(OC(F)(F)F)cc2)c2ccc(Cl)cc21)N1CCN(c2ccncc2)CC1 (stereo not drawn) , which is 500 to 10000 nM
